- SUBJECT OF TEST: AMPK
- METHOD SUMMARY: AMPK activation, enzyme-linked immunosorbent assay
- Format: biochemical
- RUN PARAMETERS: Table 2, ELISA
MEASURED QUANTITY: EC50

SUBSTANCE SMILES: Cn1c2c(c3cc(C(=O)NC4CCN(Cc5ccc(C#N)cc5)CC4)ccc31)CN(Cc1ccc(C(F)(F)F)cc1)CC2
EC50: < 0.5 µM

SUBSTANCE SMILES: Cn1cnc(CN2CCC(NC(=O)c3ccc4[nH]c5c(c4c3)CN(Cc3ccc(C(F)(F)F)cc3)CC5)CC2)c1
EC50: 10 to 50 µM

SUBSTANCE SMILES: Cn1c2c(c3cc(C(=O)NC4CCN(Cc5ccc(C(F)(F)F)cc5)CC4)ccc31)CN(Cc1ccc(C(F)(F)F)cc1)CC2
EC50: 0.5 to 1 µM

SUBSTANCE SMILES: O=C(NC1CCN(Cc2ccncc2)CC1)c1ccc2[nH]c3c(c2c1)CN(Cc1ccccc1)CC3
EC50: 5 to 10 µM

SUBSTANCE SMILES: O=C(NC1CCN(Cc2cccnc2)CC1)c1ccc2[nH]c3c(c2c1)CN(c1ccc(F)cc1)CC3
EC50: > 100 µM

SUBSTANCE SMILES: N#Cc1ccc(CN2CCC(NC(=O)c3ccc4[nH]c5c(c4c3)CN(Cc3ccc(C(N)=O)cc3)CC5)CC2)cc1
EC50: 10 to 50 µM

Exercise: Item under review: "N#Cc1ccc(NC(=O)N2CCC(NC(=O)c3ccc4[nH]c5c(c4c3)CN(Cc3ccc(C(F)(F)F)cc3)CC5)CC2)cc1" . Reported EC50?
Solution: 1 to 5 µM
